System: blood plate aggregation
procedure summary: Inhibiting activity on blood plate aggregation (adenosine diphosphate-induced, turbidimetric assay on plasma of treated rats)
Assay type: in vivo
experimental parameters: Rattus norvegicus, rats administered 100 mg/kg, read-out: percent inhibition on blood plate aggregation
I would appreciate it if you labelled entries criterion met when inhibition at 100 mg/kg is 90% or higher, otherwise criterion not met.

Is inhibition at 100 mg/kg for CCCNC(=O)OC1CN(C)Cc2sccc21 (stereo not shown) at or above 90%?
criterion not met

Is inhibition at 100 mg/kg for CC(=O)OC1CN(C(=O)C(Cl)Cl)Cc2sccc21 (stereo not shown) at or above 90%?
criterion not met

Is inhibition at 100 mg/kg for O=[N+]([O-])c1ccccc1CN1Cc2sccc2C(O)C1 (stereo not shown) at or above 90%?
criterion met

Is inhibition at 100 mg/kg for CC(=O)OC1CN(Cc2ccccc2Cl)Cc2sccc21 (stereo not shown) at or above 90%?
criterion not met

====

Provide the reported Percent anti-inflammatory activity after 2 hours of each item.
Test system: carrageenin-induced edema
procedure summary: Localized carrageenin-induced edema method (anti-inflammatory action)
Assay type: in vivo
experimental parameters: rats, oral 100 mg/kg given 1 h before, simultaneously with, and 1 h and 2.5 h after carrageenin; after 2 hours
Method: (a) Localized carrageenin-induced edema method A 1% carrageenin solution (1 ml) is injected in the metatarsal flexor muscles of the right hind limb of rats at time 0. […] The percent anti-inflammatory activity, as a function of time, is determined by measurements effected with a ROCH micrometer at times 0, 1 hour, 2 hours, 3 hours and 5 hours after carrageenin administration.
Respond numerically; units are % and should not be typed.

Entry CC(=O)OC1CN(C)Cc2sccc21 (stereo not shown) : reported Percent anti-inflammatory activity after 2 hours = ?
50

Entry CN1Cc2ccsc2C(O)C1 (stereo not shown) : reported Percent anti-inflammatory activity after 2 hours = ?
55

Entry O=C(CN1CCCC1)N1Cc2sccc2C(O)C1 (stereo not shown) : reported Percent anti-inflammatory activity after 2 hours = ?
48

Entry CC(=O)OC1CN(Cc2ccccc2Cl)Cc2sccc21 (stereo not shown) : reported Percent anti-inflammatory activity after 2 hours = ?
44

Entry O=C(Nc1ccccc1)N1Cc2sccc2C(O)C1 (stereo not shown) : reported Percent anti-inflammatory activity after 2 hours = ?
50

Entry COc1cc(C(=O)N2Cc3sccc3C(O)C2)cc(OC)c1OC (stereo not shown) : reported Percent anti-inflammatory activity after 2 hours = ?
49

Entry CC(=O)CCN1Cc2ccsc2C(O)C1 (stereo not shown) : reported Percent anti-inflammatory activity after 2 hours = ?
56

====

Test system: ovalbumin-induced systemic edema
procedure summary: Ovalbumin-induced systemic edema method (anti-inflammatory action)
Assay type: in vivo
experimental parameters: rats, oral 100 mg/kg given 1 h before and simultaneously with ovalbumin; after 2 hours
Description: (b) Ovalbumin-induced systemic edema method Rats are administered a simultaneous intraperitoneal injection of 1 ml ovalbumin and 0.5 ml of a 1% aqueous Evans Blue solution. […] The intensity of the phenomenon thus induced is scored according to a scale from 1 to 5, according to the progress of the inflammatory syndrome. […] Thus are determined the mean intensity of the edema and the percent decrease of the edema reaction.
Mark each entry Yes if its Percent decrease (of the edema reaction) After 2 hours sits below 40%, and No for all others.

Given the entry COc1cc(C(=O)N2Cc3sccc3C(O)C2)cc(OC)c1OC (stereo not shown) , would its reported Percent decrease (of the edema reaction) After 2 hours be below 40%?
No

Given the entry CC(=O)OC1CN(C)Cc2sccc21 (stereo not shown) , would its reported Percent decrease (of the edema reaction) After 2 hours be below 40%?
No

Given the entry O=C(CN1CCCC1)N1Cc2sccc2C(O)C1 (stereo not shown) , would its reported Percent decrease (of the edema reaction) After 2 hours be below 40%?
Yes

Given the entry O=C(Nc1ccccc1)N1Cc2sccc2C(O)C1 (stereo not shown) , would its reported Percent decrease (of the edema reaction) After 2 hours be below 40%?
Yes

Given the entry CC(=O)OC1CN(Cc2ccccc2Cl)Cc2sccc21 (stereo not shown) , would its reported Percent decrease (of the edema reaction) After 2 hours be below 40%?
No

Given the entry CN1Cc2ccsc2C(O)C1 (stereo not shown) , would its reported Percent decrease (of the edema reaction) After 2 hours be below 40%?
No
